molecular target: Cbl-b (Homo sapiens); test: Cbl-b inhibition assay (Cbl-b activity assay, FRET, Biological Example 1; 100 mM NaCl, 60 nM Src kinase); format: biochemical; conditions: upper bound stated in text lists; read-out: IC50 values in the Cbl-b inhibition assay of Biological Example 1
Sequence (Q13191 36-427): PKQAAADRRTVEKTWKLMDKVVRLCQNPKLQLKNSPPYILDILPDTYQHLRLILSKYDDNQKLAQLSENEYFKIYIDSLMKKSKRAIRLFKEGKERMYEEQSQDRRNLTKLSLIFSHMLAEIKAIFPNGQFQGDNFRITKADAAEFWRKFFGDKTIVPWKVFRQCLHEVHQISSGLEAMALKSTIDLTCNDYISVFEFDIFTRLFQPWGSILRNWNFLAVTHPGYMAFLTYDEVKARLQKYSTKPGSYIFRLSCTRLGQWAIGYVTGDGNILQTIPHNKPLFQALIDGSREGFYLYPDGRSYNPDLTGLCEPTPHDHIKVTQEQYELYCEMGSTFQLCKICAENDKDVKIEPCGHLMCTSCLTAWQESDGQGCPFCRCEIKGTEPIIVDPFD
pIC50: −log10 of the molar value.
observationType: pIC50

For Cc1cnc(C(=O)Nc2cccc([C@H](C)Sc3nncn3C)c2)cc1C1CC1 [Compound 53] the compound record lists pIC50 as ≥ 5.00

Lookup result for CC(c1cccc(N2Cc3c(cccc3C(F)(F)F)C2=O)c1)C(F)(F)c1nncn1C (centres unmarked) [Compound 294] ; measured pIC50: ≥ 6.30

Quick note, pIC50 for C[C@H](Sc1nncn1C)c1cccc(NC(=O)c2cccc(C(C)(F)F)n2)c1 [Compound 81] landed at ≥ 6.30

The compound listed as Cn1cnnc1C(F)(F)[C@](C)(F)c1cccc(N2Cc3c(cc(C(=O)N4CC[C@H](O)C4)cc3C(F)(F)F)C2=O)c1 [Compound 438] shows pIC50 equal to ≥ 7.00

Record summary for C[C@H](Cc1nncn1C)c1cc(N2Cc3c(cccc3C(F)(F)F)C2=O)nc(C2(C)CC2)c1 [Example 681] : reported pIC50 = ≥ 6.00

Continuing:
pIC50 reading for CN(C)Cc1cc(C(=O)Nc2cccc(C3(Cc4nncn4C)COC3)c2)nc(C2CC2)n1 [Compound 503] : ≥ 7.00

The recorded pIC50 for C[C@H](Sc1nncn1C)c1ccnc(NC(=O)c2nc3ccccc3s2)c1 [Compound 121] is ≥ 5.00

Note to self: pIC50 recorded for C[C@H](Cc1nncn1C)c1cccc(N2Cc3c(cc(C(=O)N4CC[C@H](O)C4)cc3C(F)(F)F)C2=O)c1 [Compound 274] was ≥ 7.00

---

target: Cbl-b (Homo sapiens); experiment: Cbl-b activity assay (Cbl-b inhibition assay), TR-FRET of Cbl-b interaction with UbcH5B-Ub; type: biochemical; conditions: assay buffer with 100 mM NaCl, 60 nM Src kinase; read-out: Cbl-b activity IC50
pIC50: −log10 of the molar value.
The following molecules are listed with their measured pIC50 values.

Worked set:
The molecule identified as `COC1CCN(Cc2cc3c(c(C(F)(F)F)c2)CN(c2cccc(C4(Cc5nncn5C)COC4)c2)C3=O)CC1` registered its pIC50 at > 7.00

For this molecule ( `C[C@H](Cc1nncn1C)c1cccc(N2Cc3c(cc(CN4CC(F)C4)cc3C(F)(F)F)C2=O)c1` ), measured pIC50 is > 7.00

Lab note: measured pIC50 of `C[C@H](Cc1nncn1C)c1cccc(NC(=O)c2cc(C(=O)N3C[C@@H]4[C@@H](O)[C@@H]4C3)ccn2)c1` was 5.52 to 6.00

Memo: Cn1cnnc1CC1(c2cccc(N3Cc4c(cc(C5CCOC5)cc4C(F)(F)F)C3=O)c2)COC1 (stereo not shown) , reported pIC50: > 7.00

So for C[C@H](Cc1nncn1C)c1cc(N[C@@H]2CC[C@@H]2O)nc(N2Cc3c(cccc3C(F)(F)F)C2=O)c1 [Example 689a] , the logged pIC50 turned out to be 6.00 to 6.52

Further cases:
Entry `C[C@@H]1CN(Cc2cc(C(=O)Nc3cccc(C4(Cc5nncn5C)COC4)c3)nc(C3CC3)c2)CCO1` — recorded pIC50 = > 7.00

The reported value for Cn1cnnc1CC1(c2cccc(N3Cc4c(cc(CN5CC[C@@H]6NCCO[C@@H]6C5)cc4C(F)(F)F)C3=O)c2)COC1 (relative stereo) in terms of pIC50 is > 7.00

Data provenance is patent US20220324835A1.
